Test: physchem
Details: octanol/water, pH 6.5, logD
Could you please mark YES for values of logD below 2 and NO for values at or above it?

Example cases with answers are listed next.
>>> class("CNC(=C[N+](=O)[O-])NCCSCc1csc(CN(C)C)n1 [NIZATIDINE]")
"YES"
>>> class("C[C@H]1C[C@@H]2[C@H]([C@@H](O)C[C@@]3(C)[C@H]2CC[C@]3(O)C(=O)CO)[C@@]2(C)C=CC(=O)C=C12 [METHYLPREDNISOLONE]")
"YES"

[in] hey, is logD for CC(C)NCC(O)c1ccc(O)c(O)c1 (stereo not drawn) [ISOPROTERENOL] lower than 2 or not?
[out] YES

[in] Then CC(=O)CCCCn1c(=O)c2c(ncn2C)n(C)c1=O [PENTOXIFYLLINE] ?
[out] YES

[in] Try the molecule CNCCCC1c2ccccc2C=Cc2ccccc21 [PROTRIPTYLINE]
[out] YES

[in] Same again, this time with O=C1C(O)=C([C@H]2CC[C@H](c3ccc(Cl)cc3)CC2)C(=O)c2ccccc21 [ATOVAQUONE]
[out] NO

[in] Try the molecule CNC[C@H](O)c1cccc(O)c1 [PHENYLEPHRINE]
[out] YES

[in] Ok, now Nc1nc(=O)[nH]cc1F [FLUCYTOSINE]
[out] YES

[in] // same read-out, input: COc1cc(NC(C)CCCN)c2ncccc2c1 (stereo not drawn) [PRIMAQUINE]
[out] YES

[in] Same question, CC(C)(Sc1cc(C(C)(C)C)c(O)c(C(C)(C)C)c1)Sc1cc(C(C)(C)C)c(O)c(C(C)(C)C)c1 [PROBUCOL] this time
[out] NO

[in] One more molecule: CC(=O)S[C@@H]1CC2=CC(=O)CC[C@]2(C)[C@H]2CC[C@@]3(C)[C@@H](CC[C@@]34CCC(=O)O4)[C@H]12 [SPIRONOLACTONE]
[out] NO

[in] Now the molecule COC(=O)C1=C(C)NC(C)=C(C(=O)OCCN(C)Cc2ccccc2)C1c1cccc([N+](=O)[O-])c1 (stereo not drawn) [NICARDIPINE]
[out] YES

---

Give measured logD for each item. Keep answers brief.
Test: physchem
Settings: octanol/water, pH 6.5, logD
Give bare numbers.

Example entries and their recorded answers appear below.
>>> assay_value("COCCOC(=O)C1=C(C)NC(C)=C(C(=O)OC(C)C)C1c1cccc([N+](=O)[O-])c1 (stereo not drawn)")
0.73
>>> assay_value("COCCc1ccc(OCC(O)CNC(C)C)cc1 (stereo not drawn)")
-1.32

// switching to the query compound
[in] Would you mind telling me what logD value was observed for CC(C)(C)NCC(O)c1cc(O)cc(O)c1 (stereo not drawn) ?
[out] -1.82

---

Details: octanol/water
Measured Parameter: delta logD
One number for each entry.

Reference set (3 entries):
>>> assay_value("Nc1nc(=O)[nH]cc1F [FLUCYTOSINE]")
0
>>> assay_value("CCNCC(O)c1cccc(O)c1 (stereo not drawn) [ETILEFRINE]")
-0.9
>>> assay_value("CCC1(C)CC(=O)NC1=O (stereo not drawn) [ETHOSUXIMIDE]")
0

Take each entry in turn and give its delta logD.
1. CCOC(=O)C1=C(C)NC(C)=C(C(=O)OC)C1c1cccc([N+](=O)[O-])c1 (stereo not drawn) [NITRENDIPINE]
2. COC(=O)C1=C(C#N)NC(C)=C(C(=O)OC(C)C)C1c1cccc([N+](=O)[O-])c1 (stereo not drawn) [NILVADIPINE]
3. O=P1(N(CCCl)CCCl)NCCCO1 (stereo not drawn) [CYCLOPHOSPHAMIDE ANHYDROUS]
4. O=c1n(CCCN2CCN(c3cccc(Cl)c3)CC2)nc2ccccn12 [TRAZODONE]

[out]
1: 0; 2: 0; 3: 0; 4: -0.33

[in] Need delta logD, item CNCCCC1c2ccccc2C=Cc2ccccc21 [PROTRIPTYLINE]
[out] -0.84
